Values were extracted from ChEMBL document CHEMBL6177953.

- Test system: AHH-1
- METHOD_DESCRIPTION: Cytotoxicity against human AHH-1 cells incubated for 24 to 96 hrs by CCK-8 assay
- Assay type: functional, cell-based
Each entry below carries its recorded IC50.
Kindly provide the numeric value in µM only, without the unit symbol.

Some solved cases for reference:
O=S(=O)(Cc1ccc(Br)cc1)c1cnc2cc(Cl)ccc2n1	15.5
Fc1ccc(CSc2cnc3cc(Br)ccc3n2)cc1	22.2
[O-][S+](Cc1ccc(Br)cc1)c1cnc2cc(Cl)ccc2n1 (stereo not given)	12.9

Fill in: IC50 of Cc1ccc(CS(=O)(=O)c2cnc3cc(Cl)ccc3n2)cc1 is ___
27.7

Fill in: IC50 of [O-][S+](Cc1ccc(F)cc1)c1cnc2cc(Cl)ccc2n1 (stereo not given) is ___
5.23

Fill in: IC50 of O=S(=O)(Cc1ccc(Cl)cc1)c1cnc2cc(Cl)ccc2n1 is ___
18.6

Fill in: IC50 of Brc1ccc(CSc2cnc3ccccc3n2)cc1 is ___
8.9

Fill in: IC50 of O=S(=O)(Cc1ccc(F)cc1)c1cnc2cc(Cl)ccc2n1 is ___
6.32

Fill in: IC50 of O=S(=O)(Cc1ccc(Br)cc1)c1cnc2cc(Br)ccc2n1 is ___
21.7

Fill in: IC50 of Fc1ccc(CSc2cnc3ccccc3n2)cc1 is ___
58.8

Fill in: IC50 of Clc1ccc(CSc2cnc3cc(Cl)ccc3n2)cc1 is ___
53.8

====

- METHOD_DESCRIPTION: Cytotoxicity against HUVEC incubated for 24 to 96 hrs by CCK-8 assay
- Type: toxicity, cell-based
- CONDITION_SET: human, HUVEC cells
ATTRIBUTE_MEASURED: IC50

Cc1ccc(CS(=O)(=O)c2cnc3ccccc3n2)cc1	56.1 µM

Fill in: IC50 of O=C([O-])c1ccc(/C=C/S(=O)(=O)Cc2ccc(Cl)cc2)cc1.[Na+] [RECILISIB SODIUM] is ___
> 60 µM

Fill in: IC50 of N#Cc1ccc(CS(=O)(=O)c2cnc3ccccc3n2)cc1 is ___
> 60 µM

Fill in: IC50 of O=C(O)c1ccc(CS(=O)(=O)c2cnc3cc(Cl)ccc3n2)cc1 is ___
> 60 µM

====

Each entry below carries its recorded IC50.
- System: AHH-1
- METHOD_DESCRIPTION: Cytotoxicity against human AHH-1 cells incubated for 24 to 96 hrs by CCK-8 assay
- Format: functional, cell-based

COc1ccc(CSc2cnc3ccccc3n2)cc1	> 60 µM
N#Cc1ccc(C[S+]([O-])c2cnc3cc(Cl)ccc3n2)cc1 (stereo unspecified)	4.59 µM
Cc1ccc(C[S+]([O-])c2cnc3cc(Cl)ccc3n2)cc1 (stereo unspecified)	13 µM
Brc1ccc(CSc2cnc3cc(Br)ccc3n2)cc1	4.58 µM
Cc1ccc(CSc2cnc3cc(Cl)ccc3n2)cc1	> 60 µM

Fill in: IC50 of Clc1ccc2nc(SCc3ccc(Br)cc3)cnc2c1 is ___
> 60 µM

Fill in: IC50 of O=S(=O)(Cc1ccc(F)cc1)c1cnc2ccccc2n1 is ___
> 60 µM

Fill in: IC50 of O=S(=O)(Cc1ccccc1)c1cnc2cc(Cl)ccc2n1 is ___
6.27 µM

====

- System: AHH-1
- METHOD_DESCRIPTION: Cytotoxicity against human AHH-1 cells incubated for 24 to 96 hrs by CCK-8 assay
- Format: functional, cell-based
Each entry below carries its recorded IC50.
Kindly provide the numeric value in µM only, without the unit symbol.

Clc1ccc(CSc2cnc3cc(Br)ccc3n2)cc1	3.03

Fill in: IC50 of Cc1ccc(CSc2cnc3cc(Br)ccc3n2)cc1 is ___
11.3
